- Tested on: L1210
- Measurement Protocol: Concentration required to reduce 50% growth of L1210 cells in 48 hr
- Type: functional, cell-based, Mus musculus
- Measurement Setup: Mus musculus, L1210, 48 h
Observable: IC50

| Smiles Repr | Measured Value |
| --- | --- |
| COc1ccc2[nH]c3c(C)c4cc[n+](CCCCC(=O)O)cc4c(C)c3c2c1 | > 23 µM |
